# target-desc: Short transient receptor potential channel 4 (Mus musculus) (UniProt Q9QUQ5)
# Sequence (Q9QUQ5 whole entry, looked up): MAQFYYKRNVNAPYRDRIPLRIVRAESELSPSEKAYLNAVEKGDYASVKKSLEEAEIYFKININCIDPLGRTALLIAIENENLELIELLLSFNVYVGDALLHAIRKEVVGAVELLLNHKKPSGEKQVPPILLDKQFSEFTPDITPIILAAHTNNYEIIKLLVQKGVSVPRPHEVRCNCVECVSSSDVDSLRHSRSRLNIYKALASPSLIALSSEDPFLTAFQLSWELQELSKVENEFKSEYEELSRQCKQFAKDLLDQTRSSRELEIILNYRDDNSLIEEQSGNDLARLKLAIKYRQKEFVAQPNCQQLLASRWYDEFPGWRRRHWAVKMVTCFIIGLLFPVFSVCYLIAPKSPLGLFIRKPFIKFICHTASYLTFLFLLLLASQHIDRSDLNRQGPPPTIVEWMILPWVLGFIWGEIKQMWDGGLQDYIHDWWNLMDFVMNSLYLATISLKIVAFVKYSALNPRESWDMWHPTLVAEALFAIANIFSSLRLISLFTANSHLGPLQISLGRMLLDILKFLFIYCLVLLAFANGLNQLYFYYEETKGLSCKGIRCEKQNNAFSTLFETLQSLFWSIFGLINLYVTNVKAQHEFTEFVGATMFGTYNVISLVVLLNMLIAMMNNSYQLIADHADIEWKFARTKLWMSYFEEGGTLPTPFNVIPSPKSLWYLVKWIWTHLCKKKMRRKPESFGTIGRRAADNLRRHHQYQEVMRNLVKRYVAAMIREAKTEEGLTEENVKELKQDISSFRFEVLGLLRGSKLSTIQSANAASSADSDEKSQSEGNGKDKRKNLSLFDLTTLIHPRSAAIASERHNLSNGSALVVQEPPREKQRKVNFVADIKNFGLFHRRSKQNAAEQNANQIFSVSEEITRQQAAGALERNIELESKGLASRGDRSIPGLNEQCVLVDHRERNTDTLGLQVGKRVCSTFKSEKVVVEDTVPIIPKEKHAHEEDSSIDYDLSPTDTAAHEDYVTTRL
# measurement-protocol: blockers of DAMGO-evoked TRPC4 calcium flux – cell-based, Fluo4, HEK293 TRPC4beta/mu-opioid, confirmation (AID 2636)
# condition-summary: at 10 µM
The source made the active and inactive calls.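 The calls were made as follows: active = calcium signal cut by more than 3 SD below the full-agonist control yet still positive, in both repeats and the earlier primary screen; inactive = the rest.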
Tick one outcome: active, inactive

Take a look at these entries with their results.
compound | target-desc | assigned-label
c1ccc(CNc2c3ccccc3nc3ccccc23)cc1 | Short transient receptor potential channel 4 (Mus musculus) (UniProt Q9QUQ5) | active
NC(=O)c1nsc(C(=O)N(Cc2ccco2)C(C(=O)NCc2ccccc2)c2ccc(O)cc2)c1N (stereo not drawn) | Short transient receptor potential channel 4 (Mus musculus) (UniProt Q9QUQ5) | active
C=CCNC(=O)C(=O)NCC1CCCN1S(=O)(=O)c1cccs1 (stereo not drawn) | Short transient receptor potential channel 4 (Mus musculus) (UniProt Q9QUQ5) | inactive
CCn1c(N2CCN(C(=S)NCCc3ccccc3)CC2)nc2ccccc21 | Short transient receptor potential channel 4 (Mus musculus) (UniProt Q9QUQ5) | inactive

Could you check what this test reported for O=C1Cc2ccccc2Sc2c(OCCN3CCCCC3)cccc21 ? inactive

Could you check what this test reported for COc1ccc(C(c2nnnn2C2CCCC2)N2CCN(c3ccccc3)CC2)cc1 (stereo not drawn) ? active

Could you check what this test reported for CC(=O)Oc1ccc(NC(=O)CCC2CCCCC2)c(C(=O)O)c1 ? active

Could you check what this test reported for C=CCN1CCN(C(c2cccc(OC)c2OC)c2nnnn2CCC(C)C)CC1 (stereo not drawn) ? active

Could you check what this test reported for O=C(CC1C(=O)NCCN1Cc1ccc(-c2ccccc2)cc1)NCCc1ccccn1 (stereo not drawn) ? inactive

Could you check what this test reported for Clc1ccc(CN2C3=NCCN3c3ccccc32)cc1 ? active

Could you check what this test reported for Fc1ccc2c(c1)C(c1ccncc1)=NNC(c1ccc(Cl)cc1)=N2 ? inactive

Could you check what this test reported for Cc1ccn2cc(CCNC(=O)c3ccc(Br)o3)nc2c1 ? active

Could you check what this test reported for CCN(CC)CC(=O)Nc1ccccc1SCC(=O)Nc1ccsc1C(=O)OC ? inactive

Could you check what this test reported for Cc1ccccc1Cn1c(CN2CCc3ccccc3C2)nc2c1c(=O)n(C)c(=O)n2C ? inactive

Could you check what this test reported for COc1ccc(/C=C2/SC(=S)N(NS(=O)(=O)c3ccc(C)cc3)C2=O)cc1 ? inactive

Could you check what this test reported for Cc1cc(N2CCCCC2)nc(NCc2ccccc2)n1 ? inactive

Could you check what this test reported for CCCCNc1nc(-c2ccccc2)c(C(=O)OCC)cc1C#N ? active

Could you check what this test reported for O=C(c1ccc2c(c1)OCO2)C1CCCN(Cc2cc(F)ccc2-n2cccn2)C1 (stereo not drawn) ? active

Could you check what this test reported for O=C(c1ccccc1F)N1CCN(c2ccc([N+](=O)[O-])c3cccnc23)CC1 ? inactive

Could you check what this test reported for CN(CC(=O)Nc1ccc(F)cc1)C(=O)COC(=O)c1ccccc1 ? inactive

Could you check what this test reported for O=S(=O)(c1ccccc1)N1CCN(C/C=C/c2ccccc2)CC1 ? active

Could you check what this test reported for CN1CCN(C(=O)c2cccn(Cc3c(Cl)cccc3Cl)c2=O)CC1 ? inactive

Could you check what this test reported for CCN(CC(=O)NCc1ccc(Cl)cc1)CC(=O)NC1(C#N)CCCC1 ? inactive
